Where do these numbers come from? They come from PubChem BioAssay AID1259407.

System: CCRIS mutagenicity, Ames/micronucleus/aberration tests
Test: CCRIS mutagenicity studies
Conditions: Test System: AMES SALMONELLA TYPHIMURIUM; Strain/Indicator: TA1535; Metabolic Activation: RAT, LIVER, S-9, AROCLOR 1254 (10%); Method: PREINCUBATION
Active and inactive are the calls of the source. How the calls were made is not given here.
Please answer using one outcome listed in active, inactive

In: # fetch the recorded call for COc1cc2c(cc1OC)[C@@]13CCN4CC5=CCO[C@H]6CC(=O)N2[C@H]1[C@H]6[C@H]5C[C@H]43 here
Out: inactive

In: Query: recorded result category for CNc1ccc(N(CCO)CCO)cc1[N+](=O)[O-] in this test
Out: inactive

In: Recorded call for [O]=[Cd] ?
Out: inactive

In: Identify the outcome logged in this assay for the compound shown: CN(C)CCOC(C)(c1ccccc1)c1ccccn1 (stereo not given)
Out: inactive

In: Please indicate how the test categorized CCOC(=O)c1ccccc1N .
Out: inactive

In: Please state the recorded outcome for this compound: CCN(CC)CCCC(C)Nc1c2ccc(Cl)cc2nc2ccc(OC)cc12 (stereo not given)
Out: inactive

In: Give the logged outcome of this assay for the following compound: c1ccc(Nc2ccccc2)cc1
Out: inactive

In: What was the test verdict on O=Cc1ccc(Cl)c(Cl)c1 ?
Out: inactive

In: Please indicate how the test categorized OCCOCCO .
Out: inactive

In: Write down the call the test reported for this compound. Item: C=CC(=O)OCCBr
Out: active

In: Test call, this compound: C[CH2][Pb]([Cl])([CH2]C)[CH2]C
Out: inactive

In: Dear colleague, could you share the recorded outcome for Cc1ccc(OCC2CO2)cc1 (stereo not given) when you have a moment?
Out: active

In: Dear all, I need the recorded test outcome for ClCC(Cl)Cl , thank you.
Out: inactive

In: Fill in: this test's call for CCCCC/C=C\C/C=C\CCCCCCCC(=O)O is ___
Out: inactive

In: Per the assay record, what outcome was assigned to NCCCN ?
Out: inactive

In: Just curious, what result did OCC(Br)CBr (stereo not given) get here?
Out: active

In: Per the assay record, what outcome was assigned to Oc1c(I)cc(Cl)c2cccnc12 ?
Out: inactive

In: What was the test verdict on CCCCCCOC(=O)c1ccccc1C(=O)OCCCCCC ?
Out: inactive

In: Assay outcome for OC(CCl)CCl : what was it?
Out: active

In: Called result for O=C1OC(=O)c2cc([N+](=O)[O-])ccc21
Out: inactive

In: Outcome? COc1cc([N+](=O)[O-])ccc1N=NC(C(C)=O)C(=O)Nc1ccccc1OC (stereo not given)
Out: inactive

In: Recorded test call requested for [Ga]#[As]
Out: inactive

In: Record lookup: outcome of this test for CC/C=C1\OC(=O)c2ccccc21 ?
Out: inactive

In: Please share the test call associated with c1ccc2c(c1)Nc1ccccc1S2 .
Out: inactive

In: For C=C(C)C(=O)OCCC , what call appears in the results of this test?
Out: inactive

In: Each compound tested received a call. Report the one for Nc1cc(S(=O)(=O)[O-])cc2c1C(=O)/C(=N\Nc1ccc(-c3ccc(N/N=C4\C(=O)c5c(N)cc(S(=O)(=O)[O-])cc5C=C4S(=O)(=O)[O-])c(O)c3)cc1O)C(S(=O)(=O)[O-])=C2.[Cu].[Cu].[Na+].[Na+].[Na+].[Na+] .
Out: inactive

In: For this compound, state the assay outcome: Cc1c(C)c(Br)c(Br)c(Br)c1Br
Out: inactive

In: Could you check what this test reported for Cc1ccc(N=Nc2c(O)ccc3ccccc23)c([N+](=O)[O-])c1 ?
Out: inactive

In: Hi, sorry to bother you, what did the test record for O=C1CCC(=O)O1 ?
Out: inactive

In: Tell me the assay call for N#CCO please.
Out: inactive

In: What did the test return for CCOC(/C=C(\C)CCC=C(C)C)OCC ?
Out: active

In: # outcome recorded in this test, key = Cc1ccc(Br)cc1
Out: inactive

In: Any idea what this test logged for O=c1c2ccc3c4c(ccc(c24)c2nc4ccccc4n12)c(=O)n1c2ccccc2nc31 ?
Out: inactive

In: Write down the call the test reported for this compound. Item: CN(C)c1ccc(N=NS(=O)(=O)O)cc1
Out: inactive

In: Identify the outcome logged in this assay for the compound shown: Cc1cc(O)ccc1Cl
Out: inactive

In: Just curious, what result did CCC(C)C(C)CO (stereo not given) get here?
Out: inactive

In: What call does the record list for CCOCCO ?
Out: inactive

In: Which result was noted for this compound in the test: CCCNC(=O)NS(=O)(=O)c1ccc(Cl)cc1
Out: inactive

In: Record request — test call for CC(C)N
Out: inactive

In: For this compound, state the assay outcome: O=C/C=C/c1ccco1
Out: inactive

In: How did this test come out for c1ccc(Nc2ccc3ccccc3c2)cc1 ?
Out: inactive

In: What was the test verdict on CCCCCCOCC1CO1 (stereo not given) ?
Out: active

In: For NC1CCC(CC2CCC(N)CC2)CC1 (stereo not given) , which call appears in the assay record?
Out: inactive

In: Short answer needed: outcome of this test for CCC[CH2][Sn]([CH2]CCC)([O]C(C)=O)[O]C(C)=O ?
Out: inactive

In: Look up the recorded call for Cc1cc(C)cc(N)c1 in this test.
Out: inactive
